test system: DU-145 prostate; experiment: NCI tumour cell line growth inhibition, 48 h
Please respond with reported TGI for every item in the list.
Give just the number in µM; leave the unit off.

// lookup TGI for COc1ccccc1-c1ccc2nc(NC(=O)Nc3cc(C(F)(F)F)cc(C(F)(F)F)c3)sc2c1
14.9

Follow-up entry: CSC1=Nc2c(c(C)c(-c3ccccc3)n2CCCCl)C2=NC(=O)CN12
26.7

Follow-up entry: O=C1N[C@H]2C(=O)c3c(Cl)sc(Cl)c3[C@H]2O1
23.7

Follow-up entry: COC1=C(C)C(=O)C2=C(C1=O)C(CO)N1C(C#N)C3CC4C(C1C2N1CCOC41)N3C (stereo unspecified)
14

Follow-up entry: COc1cc(CNc2nc3cc(N)cc(N)c3nc2-c2ccccc2)cc(OC)c1OC
20

Follow-up entry: CCCCCCCCCCCCOC1C(CNCC2OC3OC(C)(C)OC3C2NC(=O)Nc2ccc(C(F)(F)F)cc2)OC2OC(C)(C)OC21 (stereo unspecified)
11.9

Follow-up entry: C[n+]1c2cc(N)ccc2cc2ccc(N)cc21 (tested in a mixture with another compound)
4.88

Follow-up entry: COc1cc2cn3c4ccc(O)cc4nc(N)c3c2cc1OC
5.75

Follow-up entry: CC(C)C(C/C=C1/CC(CO)(COC(=O)C(C)(C)C)OC1=O)C(C)C (stereo unspecified)
23.4

Follow-up entry: Cc1ccc(P(c2ccc(C)cc2)c2ccc(C)cc2)cc1
40.1

###

test system: OVCAR-8 ovarian; assay: NCI tumour cell line growth inhibition, 48 h
The following ranges of TGI define the classes used here: bucket A: < 30 µM; bucket B: ≥ 30 µM and < 60 µM; bucket C: ≥ 60 µM

Using the reported TGI, which band applies to O=C(N[C@@H]1C=CCC[C@@H]1c1ccccc1)OCc1ccccc1 ?
bucket B

Follow-up entry: COc1ccc2c(O)c(/C=C3\N=Nc4ncccc43)oc2c1C[C@H]1CCNC[C@H]1F
bucket A

Follow-up entry: Cc1nc2nn(Cc3ccccc3)cc2c(=O)o1
bucket C

Follow-up entry: NC1=NN(c2ccccc2)C(=O)C1/C(=N\NC(=O)c1cc2ccccc2cc1O)C(=O)Nc1nc([N+](=O)[O-])cs1 (stereo not given)
bucket C

Follow-up entry: C=CC1(c2ccccc2Cl)N/C(=C/OCC)CO1 (stereo not given)
bucket C

Follow-up entry: CN(CCCCN1CCCC1)CCCCN(C)C(=O)Cc1ccc(Cl)c(Cl)c1
bucket C

Follow-up entry: Cc1ccc(Nc2[nH]c(C(=O)c3ccc(Cl)cc3)c(N)c2C(=S)Nc2ccccc2)nc1
bucket C

Follow-up entry: CCOC(=O)c1ccc(NC(=O)O/N=C(/Cl)C(C)C)cc1
bucket A

Follow-up entry: CCCCCCCC/C=C\CCCCCCCC(=O)OC[C@]1(CO)CCC(=O)O1
bucket C

Follow-up entry: [C-]#[O+].[C-]#[O+].[Ir].[O-]c1ccc2ccccc2c1N=Nc1ccccc1
bucket B

Follow-up entry: CSC1=Nc2c(c(C)c(-c3ccccc3)n2CCCCl)C2=NC(=O)CN12
bucket C

Follow-up entry: CCOC(=O)c1c(C)noc1/N=N/N(CCO)CCO
bucket C

Follow-up entry: COC1/C=C\OC2(C)Oc3c(C)c(O)c4c(O)c(c(/C=N\OCCCc5ccccc5)c(O)c4c3C2=O)NC(=O)/C(C)=C\C=C/C(C)C(O)C(C)C(O)C(C)C(OC(C)=O)C1C (stereo not given)
bucket A

Follow-up entry: COc1cc(-c2nc(-c3nnc(-c4ccc(F)c(Cl)c4)o3)c3ccccn23)cc(OC)c1OC
bucket A

Follow-up entry: Clc1ccccc1C1N2CCCCC2[C@@H]2c3[nH]c4ccccc4c3CCN12 (stereo not given in full)
bucket B

Follow-up entry: COc1ccc(-c2nn(-c3ccc(NC(=O)Nc4ccc(Cl)c(Cl)c4)cc3)cc2-c2ccncc2)cc1Cl
bucket C
